- System: CP238
- assay-name: qHTS profiling for inhibitors of Plasmodium falciparum proliferation (AID 504749); further: nearly all actives have a fitted effect of over 60% in size; further: potency means the concentration at half of the fitted maximal effect
- particulars: P. falciparum in erythrocytes, SYBR Green DNA, 72 h; series mostly up to 12.8 µM
Results filed as inconclusive are left out. Active and inactive are the calls of the source. The call rests on the fitted dose curve; in most records, active means well fitted inhibition curve with a large enough effect; inconclusive means small, poorly fitted or top-dose-only effect; inactive means flat fitted curve, though single readings scatter.
quantity-measured: Potency

COc1ccc(CC(N)C(=O)NC2C(CO)OC(n3cnc4c(N(C)C)ncnc43)C2O)cc1 (centres undefined); 794 nM (active)
Cc1cccc(C)c1NC(=O)[C@H](C)N; inactive
CO[C@]12C(COC(N)=O)C3=C(C(=O)C(C)=C(N)C3=O)N1CC1NC12 (some centres undefined); 631 nM (active)
Cc1onc(-c2ccccc2Cl)c1C(=O)N[C@H]1C(=O)N2[C@H]1SC(C)(C)[C@H]2C(=O)O; inactive

###

- target: Cytochrome P450 2D6 (Homo sapiens) (UniProt P10635)
- Sequence (P10635 whole entry, looked up): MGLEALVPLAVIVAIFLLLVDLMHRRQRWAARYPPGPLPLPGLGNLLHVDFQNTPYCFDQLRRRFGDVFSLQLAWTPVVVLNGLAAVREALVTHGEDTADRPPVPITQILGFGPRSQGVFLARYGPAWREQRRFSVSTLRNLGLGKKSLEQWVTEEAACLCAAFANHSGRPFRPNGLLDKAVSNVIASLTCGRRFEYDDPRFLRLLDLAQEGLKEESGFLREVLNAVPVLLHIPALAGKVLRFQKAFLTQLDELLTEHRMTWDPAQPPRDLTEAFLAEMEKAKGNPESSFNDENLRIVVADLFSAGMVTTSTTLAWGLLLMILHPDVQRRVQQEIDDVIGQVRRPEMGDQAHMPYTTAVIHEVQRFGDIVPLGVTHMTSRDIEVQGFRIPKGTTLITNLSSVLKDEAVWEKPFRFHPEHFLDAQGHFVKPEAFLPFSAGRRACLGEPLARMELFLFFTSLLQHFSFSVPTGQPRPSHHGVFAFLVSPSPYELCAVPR
- assay-name: Cytochrome P450 family 2 subfamily D member 6 (CYP2D6) small molecule antagonists: luciferase biochemical (cell-free) qHTS assay (AID 1645840); further: nearly all actives have a fitted effect of over 55% in size
- particulars: P450-Glo CYP2D6 enzyme, luciferin luminescence, 1 h; series mostly up to 57.4 µM
Records with an inconclusive call do not appear. Calls of active or inactive are those of the source. Calls follow the shape of the dose curve; as a rule, active = well fitted inhibition curve with a large enough effect in the repeat runs; inconclusive = weak or mixed curves; inactive = flat fitted curve, though single readings scatter.
Respond only with the outcome that fits, drawn from active, inactive

Cc1ccc2nc(NC(=O)CSc3nccn3Cc3ccccc3)sc2c1; active

Here is another molecule to look at.
Each molecule tested received a call. Report the one for COc1cc(C(c2c(C)[nH][nH]c2=O)c2c(C)[nH][nH]c2=O)ccc1OC(=O)c1ccccc1F . inactive

###

- assay-name: qHTS Assay for Lipid Storage Modulators (AID 1519); on activity change, negative = inhibition: on the % scale 0 is the no-effect control and ±100 the full control effect
- particulars: Drosophila S3 cells, BODIPY lipid droplet/cell ratio, laser cytometry; at 57.5 µM (top of the series); cells loaded with oleic acid
Records with an inconclusive call do not appear.
Measured activity change, negative = inhibition, listed per entry.
Answer with a number only, understood to be in %.

Example entries and their recorded answers appear below.
C=C1C2CC[C@@]3(C)C(c4ccoc4)OC(=O)C[C@@]13OC1CC(=O)C(C)(C)C(C(O)C(=O)OC)[C@]12C (stereo partly specified); -0.848
CCC1OC(=O)CC(O)C(C)[C@@H](O[C@@H]2OC(C)[C@H](O[C@@H]3C[C@@](C)(O)C(O)C(C)O3)C(N(C)C)C2O)[C@H](CC=O)CC(C)C(=O)/C=C/C(C)=C/[C@@H]1COC1OC(C)C(O)C(OC)[C@@H]1OC (stereo partly specified); 0.0526
NCCC(=O)N[C@H](Cc1cnc[nH]1)C(=O)O; 4.17
COc1ccc(C(=O)c2ccccc2)c(O)c1O; 1.94
CC1CCC(C(C)(C)O)CC2=C1CCC2C (stereo unspecified); 7.53
Fc1ccc(Nc2nc(-c3cccnc3)nc3ccccc23)cc1; 7.7

Give the measured activity change, negative = inhibition of CC1(C)C[C@@H]2C(=O)CCC3O[C@@]3(C)CCC21 (stereo partly specified) . 3.76

Please do the same for C=Cc1c(C)/c2[n-]/c1=C\c1[n-]c(c(CC)c1C)/C=c1\[n-]c3c(c1C)C(=O)C(C(=O)[O-])C=3c1[n-]c(c(C)c1CCC(=O)[O-])\C=2.[Cu].[Na+].[Na+] (stereo unspecified) as well. 23.5

Same question, CC1(C)CC[C@]2(C(=O)O)CC[C@@]3(C)C(=CCC4[C@@]5(C)CCC(O)[C@@](C)(CO)C5CC[C@@]43C)C2C1 (stereo partly specified) this time 1.32

Please answer likewise for C=CCSCC(N)C(=O)O (stereo unspecified) 7.56

Same question for CC(=O)/C=C\C1[C@]2(C)CCCC(C)(C)C2CC[C@@]1(C)O (stereo partly specified) please. 3.07

###

- assay-name: qHTS Assay for Lipid Storage Modulators (AID 1519)
- particulars: Drosophila S3 cells, BODIPY lipid droplet/cell ratio, laser cytometry; measured here: lipid channel max response; cells loaded with oleic acid
- Procedure: NIH Molecular Libraries Probe Production Centers Network [MLPCN] NIH Chemical Genomics Center [NCGC] Assay Submitter (PI): Beller, Mathias; Max-Planck-Institut fur Biophysikalische Chemie […] We dispensed 4 uL of cells at 1.25 x 10^6 cells/mL into LoBase Aurora COC 1,536-well plates (black walled, clear bottom) with a bottle-valve solenoid-based dispenser (Aurora) to obtain 5,000 cells/well. […] The ratio of the total intensity in PMT channel 1 over total intensity of channel 3 was also calculated. […]
Records with an inconclusive call do not appear.
quantity-measured: max response (%)
Write down the numeric answer in % and omit the unit.

// solved cases for max response follow
C=C1CCC(=O)C(C)CCC2C1CC2(C)C (stereo unspecified); 14.5
COC(=O)CC1C(C)(C)C(OC(C)=O)C2CC3C4CC(=O)OC(c5ccoc5)[C@]4(C)CCC3[C@@]1(C)C2=O (stereo partly specified); -17.5
O=c1cc(-c2ccccc2)oc2cc(O)c(O)cc12; -6.23
Oc1ccc2c(c1)OC(c1ccc(O)c(O)c1)C(O)C2 (stereo unspecified); 1.34
C=C1c2c(Cl)ccc(O)c2C(O)=C2C(=O)[C@@]3(O)C(O)=C(C(N)=O)C(=O)[C@@H](N(C)C)[C@@H]3[C@@H](O)[C@H]12; -8.74

Requested field: max response. Item: CC(=O)O[C@@]1(C(C)=O)CCC2C3C=C(Cl)C4=CC(=O)CC[C@]4(C)C3CC[C@]21C (stereo partly specified) -9.83

Another compound: CC1CCC2(OC1)OC1CC3C4CCC5CC(O)CCC5(C)C4=CCC3(C)C1C2C (stereo unspecified) 3.25

Repeat with CC(=O)OC1C(=O)[C@@]2(C)C(O)CC3OC[C@]3(OC(C)=O)C2C(OC(=O)c2ccccc2)[C@]2(O)CC(OC(=O)C(O)C(NC(=O)c3ccccc3)c3ccccc3)C(C)=C1C2(C)C (stereo partly specified) -0.503

Same again, this time with CC(C)(CS)C(=O)N1CCC[C@H]1C(=O)O 4.64

Can you check C=C1CC[C@H](O)C/C1=C/C=C1\CCC[C@]2(C)[C@H]1CC[C@H]2[C@@H](C)/C=C\[C@@H](C)C(C)C next? -2.71

Now this one: CC1=C(C2=C(C)C(C(C)C)C3=C(C(=O)C(O)C3O)C2O)C(O)C2=C(C(O)C(O)C2=O)C1C(C)C (stereo unspecified) 12.8

###

Each item that follows carries a reported max response.
- assay-name: qHTS Assay for Lipid Storage Modulators (AID 1519)
- particulars: Drosophila S3 cells, BODIPY lipid droplet/cell ratio, laser cytometry; measured here: cell count channel max response; cells loaded with oleic acid
Inconclusive results are not listed.
Use % as the unit, but write only the number.

These solved cases illustrate the format of a correct answer.
CC(=O)OC1CC[C@@]2(C)C(CC[C@@]3(C)C2CC=C2C4CC(C)(C)CC[C@]4(C)CC[C@@]23C)C1(C)C (some centres undefined); 6.83
CS(=O)(=O)Nc1cccc(-c2nc(Nc3ccc(F)cc3)c3ccccc3n2)c1; -21
CC(C)C1=CC2=CC[C@@H]3[C@](C)(CO)CCC[C@]3(C)C2CC1 (some centres undefined); 10.4
COc1cc2c(cc1O)C(Cc1ccc(O)cc1)[N+](C)(C)CC2 (centres undefined); 6.75
C[C@@H]1OC(OC2C(OC3CC[C@@]4(C)C5CC=C6C7CC(C)(C)CC[C@@]7(C(=O)O)CCC6(C)C5(C)CCC4[C@]3(C)CO)OCC(O)C2O)C(O)C(O)C1O (some centres undefined); 9.24

Param item = NC(C(=O)O)[C@@H]1CC(Cl)=NO1 (some centres undefined) ; retrieve measured max response. 16.9

Quick one: CC(=O)OC[C@@]1(O)C[C@]23CCC4c5ccoc5CC[C@@]4(C)C2CCC1C3 (some centres undefined) 7.17

Same thing, different compound: Cc1cccc(CN2CCN([C@@H](c3ccccc3)c3ccc(Cl)cc3)CC2)c1 -11.7

And for C[C@H](NCCC(c1ccccc1)c1ccccc1)c1ccccc1 ? -21.2

###

- target: Phospholipid hydroperoxide glutathione peroxidase GPX4 (Homo sapiens) (UniProt P36969)
- Sequence (P36969 whole entry, looked up): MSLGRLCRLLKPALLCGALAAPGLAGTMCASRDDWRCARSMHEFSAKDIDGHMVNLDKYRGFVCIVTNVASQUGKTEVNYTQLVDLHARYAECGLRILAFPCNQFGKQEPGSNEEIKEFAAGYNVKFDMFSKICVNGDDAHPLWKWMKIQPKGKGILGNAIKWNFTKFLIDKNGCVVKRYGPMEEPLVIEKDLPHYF
- assay-name: Primary qHTS Assay for Inhibitors of Recombinant Selenoprotein Glutathione Peroxidase 4 (GPX4) (AID 1845192); further: nearly all actives have a fitted effect of over 65% in size
- particulars: recombinant GPX4, GR-coupled NADPH fluorescence, 15 min; series mostly up to 50 µM
Results filed as inconclusive are left out. Active and inactive are the calls of the source. Calls follow the shape of the dose curve; as a rule, active = well fitted inhibition curve with a large enough effect; inconclusive = small, poorly fitted or top-dose-only effect; inactive = flat fitted curve, though single readings scatter.
Parameter call: string, one of active, inactive

The following compounds have reported results that may help.
Cc1ccc(-c2nn(C(C)(C)CNC(=O)c3ccncc3)c3ncnc(N)c23)cc1; inactive
CC[C@H](C)[C@@H]([C@@H](CC(=O)N1CCC[C@H]1[C@H](OC)[C@@H](C)C(=O)N[C@@H](Cc1ccccc1)c1nccs1)OC)N(C)C(=O)[C@@H](NC(=O)[C@H](C(C)C)N(C)C)C(C)C; inactive

Would you mind telling me which call this test gave Nc1ncccc1-c1nc2ccc(-c3ccccc3)nc2n1-c1ccc(C2(N)CCC2)cc1 ? active

meta.source: PubChem BioAssay (NCATS)
